- study_target: UniProt P31645
- Sequence (P31645 whole entry): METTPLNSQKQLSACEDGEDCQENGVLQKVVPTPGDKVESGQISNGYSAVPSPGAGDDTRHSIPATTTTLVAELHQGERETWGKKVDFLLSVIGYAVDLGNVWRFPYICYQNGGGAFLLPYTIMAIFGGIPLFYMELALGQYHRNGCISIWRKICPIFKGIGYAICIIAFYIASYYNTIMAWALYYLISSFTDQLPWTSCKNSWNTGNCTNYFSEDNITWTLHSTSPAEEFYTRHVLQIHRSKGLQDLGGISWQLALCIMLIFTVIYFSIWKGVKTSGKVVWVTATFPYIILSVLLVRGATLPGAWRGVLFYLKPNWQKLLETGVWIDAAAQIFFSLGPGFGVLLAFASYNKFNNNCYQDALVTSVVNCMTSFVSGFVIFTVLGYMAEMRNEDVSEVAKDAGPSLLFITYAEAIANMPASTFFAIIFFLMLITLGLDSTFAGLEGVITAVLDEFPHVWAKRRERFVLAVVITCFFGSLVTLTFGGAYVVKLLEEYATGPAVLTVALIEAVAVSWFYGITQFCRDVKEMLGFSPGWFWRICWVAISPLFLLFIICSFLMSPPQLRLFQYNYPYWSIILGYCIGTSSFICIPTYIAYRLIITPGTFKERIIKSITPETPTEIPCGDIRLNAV
Simple rule here: IC50 less than 30 nM is condition met, otherwise condition not met.

Q: Lab log: compare recorded IC50 with 30 nM; is it strictly lower for O=C(CCC1CCN(Cc2ccccc2)CC1)c1ccc(N2CCN(CCCCc3c[nH]c4ccccc34)CC2)cc1 ?
A: condition not met

Q: Lab log: compare recorded IC50 with 30 nM; is it strictly lower for N#Cc1ccc2[nH]cc(CN3CCN(c4ccc5c(c4)CC(CC4CCN(Cc6ccccc6)CC4)C5=O)CC3)c2c1 (centres undefined) ?
A: condition met

Q: Lab log: compare recorded IC50 with 30 nM; is it strictly lower for N#Cc1ccc2[nH]cc(CN3CCN(c4ccc(C(=O)CCC5CCN(Cc6ccsc6)CC5)cc4)CC3)c2c1 ?
A: condition not met

Q: Lab log: compare recorded IC50 with 30 nM; is it strictly lower for COc1ccc2[nH]cc(CCCCN3CCN(c4ccc(C(=O)CCC5CCN(Cc6ccccc6)CC5)cc4)CC3)c2c1 ?
A: condition not met

Q: Lab log: compare recorded IC50 with 30 nM; is it strictly lower for O=C(CCC1CCN(Cc2ccccc2)CC1)c1ccc(N2CCN(CCCCc3c[nH]c4ccc(F)cc34)CC2)cc1 ?
A: condition not met

Q: Lab log: compare recorded IC50 with 30 nM; is it strictly lower for N#Cc1ccc2[nH]cc(CCCCN3CCN(c4ccc5c(c4)CC(CC4CCN(Cc6ccccc6)CC4)C5=O)CC3)c2c1 (centres undefined) ?
A: condition not met

====

- study_target: Acetylcholinesterase (Mus musculus, UniProt P21836)
- Sequence (P21836 whole entry): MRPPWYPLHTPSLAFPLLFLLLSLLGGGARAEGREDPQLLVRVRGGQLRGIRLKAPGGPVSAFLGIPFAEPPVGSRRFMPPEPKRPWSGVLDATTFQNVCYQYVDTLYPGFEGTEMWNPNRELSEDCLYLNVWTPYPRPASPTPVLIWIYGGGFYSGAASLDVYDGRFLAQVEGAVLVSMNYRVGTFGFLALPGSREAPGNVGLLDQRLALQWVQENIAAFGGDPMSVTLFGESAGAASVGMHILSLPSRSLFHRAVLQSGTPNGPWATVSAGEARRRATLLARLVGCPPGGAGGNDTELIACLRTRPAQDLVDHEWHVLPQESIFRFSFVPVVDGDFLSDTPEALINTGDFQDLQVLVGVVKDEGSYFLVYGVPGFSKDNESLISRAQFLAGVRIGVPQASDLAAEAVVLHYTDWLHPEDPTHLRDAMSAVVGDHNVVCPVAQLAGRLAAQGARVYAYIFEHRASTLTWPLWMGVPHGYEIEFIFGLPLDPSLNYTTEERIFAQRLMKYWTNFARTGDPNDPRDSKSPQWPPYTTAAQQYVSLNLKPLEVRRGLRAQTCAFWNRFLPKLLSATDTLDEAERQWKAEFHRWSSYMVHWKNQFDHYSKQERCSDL
- run_description: biochemical
- Description: Inhibition of AChE in mouse cortical homogenate using acetylthiocholine iodide as substrate incubated for 20 mins by Ellman's method
Give measured IC50 for each item. Keep answers brief.
Answers are plain numbers, in nM.

[[record]]
mol = "COC(=O)c1ccc2[nH]cc(CCCCN3CCN(c4ccc(C(=O)CCC5CCN(Cc6ccccc6)CC5)cc4)CC3)c2c1"
study_target = "Acetylcholinesterase (Mus musculus, UniProt P21836)"
property_measured = "IC50"
unit_spec = "nM"
test_result = 3.28

[[record]]
mol = "COc1ccc2[nH]cc(CCCCN3CCN(c4ccc(C(=O)CCC5CCN(Cc6ccccc6)CC5)cc4)CC3)c2c1"
study_target = "Acetylcholinesterase (Mus musculus, UniProt P21836)"
property_measured = "IC50"
unit_spec = "nM"
test_result = 2.42


Could I get IC50 for every one of these entries?
1. COc1cccc(CN2CCC(CCC(=O)c3ccc(N4CCN(CCCCc5c[nH]c6ccc(C#N)cc56)CC4)cc3)CC2)c1
2. N#Cc1ccc2[nH]cc(CCCCN3CCN(c4ccc(C(=O)CCC5CCN(Cc6cccc(F)c6)CC5)cc4)CC3)c2c1

A:
[644, 10.9]

====

- study_target: Cholinesterase (Mus musculus, UniProt Q03311)
- Sequence (Q03311 whole entry): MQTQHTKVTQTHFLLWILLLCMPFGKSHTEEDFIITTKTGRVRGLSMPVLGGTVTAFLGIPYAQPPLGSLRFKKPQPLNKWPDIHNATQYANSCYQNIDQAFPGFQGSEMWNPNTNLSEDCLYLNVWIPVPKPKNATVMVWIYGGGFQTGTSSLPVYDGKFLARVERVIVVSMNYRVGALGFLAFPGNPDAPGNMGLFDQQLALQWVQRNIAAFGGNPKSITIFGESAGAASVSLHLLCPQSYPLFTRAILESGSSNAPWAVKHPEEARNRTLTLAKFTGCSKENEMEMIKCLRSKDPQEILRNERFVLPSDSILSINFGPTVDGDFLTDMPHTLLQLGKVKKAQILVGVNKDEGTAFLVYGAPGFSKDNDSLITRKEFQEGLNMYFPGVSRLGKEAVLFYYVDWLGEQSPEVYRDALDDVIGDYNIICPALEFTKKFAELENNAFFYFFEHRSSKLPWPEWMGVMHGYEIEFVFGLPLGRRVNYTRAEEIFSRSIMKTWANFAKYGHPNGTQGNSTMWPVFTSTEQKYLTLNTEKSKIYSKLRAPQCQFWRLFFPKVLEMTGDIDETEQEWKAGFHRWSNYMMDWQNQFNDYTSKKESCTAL
property_measured: pIC50
Answers are plain numbers, as −log10 of the molar value.

Could I get pIC50 for every one of these entries?
1. CCCCN1CCC(CCC(=O)c2ccc(N3CCN(CCCCc4c[nH]c5ccc(C#N)cc45)CC3)cc2)CC1
2. N#Cc1ccc2[nH]cc(CCCCN3CCN(c4ccc(C(=O)CCC5CCN(Cc6ccsc6)CC5)cc4)CC3)c2c1
3. N#Cc1ccc2[nH]cc(CCCCN3CCN(c4cccc5c4C(=O)C(CC4CCN(Cc6ccccc6)CC4)C5)CC3)c2c1 (stereo not drawn)
4. N#Cc1ccc2[nH]cc(CCCCN3CCN(c4ccc(C(=O)CCC5CCN(Cc6ccoc6)CC5)cc4)CC3)c2c1
5. Cc1cccc(CN2CCC(CCC(=O)c3ccc(N4CCN(CCCCc5c[nH]c6ccc(C#N)cc56)CC4)cc3)CC2)c1
6. N#Cc1ccc2[nH]cc(CCCCN3CCN(c4cccc(C(=O)CCC5CCN(Cc6ccccc6)CC5)c4)CC3)c2c1
7. N#Cc1ccc2[nH]cc(CCCN3CCN(c4ccc(C(=O)CCC5CCN(Cc6ccsc6)CC5)cc4)CC3)c2c1
8. O=C(CCC1CCN(Cc2ccccc2)CC1)c1ccc(N2CCN(CCCCc3c[nH]c4ccc(F)cc34)CC2)cc1

A:
1: 5.72; 2: 6.05; 3: 6.74; 4: 5.56; 5: 4.87; 6: 6.00; 7: 5.92; 8: 5.83
